Protocol Text: Preliminary pharmacokinetic experiment in rats by gavage
Format: in vivo, SD rats
Condition Context: male, Sprague-Dawley (SD), rat, plasma, po, 10 mg/kg, 10 mg/kg by gavage
Reported Property: AUC(0-inf) (ng·h/mL)
One number for each entry, in ng·h/mL.

QUERY: Consider the molecule `CNCc1ccc(-c2cc3cc(F)cc(C(N)=O)c3o2)cc1` and give its recorded AUC(0-inf).
RESULT: 404

---

Protocol Text: Preliminary pharmacokinetic experiment in rats by gavage
Assay type: in vivo, SD rats
Condition Context: male, Sprague-Dawley (SD), rat, plasma, po, 10 mg/kg by gavage, read-out: F (absolute bioavailability)
Reported Property: bioavailability (%)
Numbers only, in %.

QUERY: Return bioavailability for the following molecule: CNCc1ccc(-c2cc3cc(F)cc(C(N)=O)c3o2)cc1 [compound 5b]
RESULT: 58.9

---

Target Under Test: PARP2 (Homo sapiens, UniProt Q9UGN5)
Sequence (Q9UGN5 whole entry): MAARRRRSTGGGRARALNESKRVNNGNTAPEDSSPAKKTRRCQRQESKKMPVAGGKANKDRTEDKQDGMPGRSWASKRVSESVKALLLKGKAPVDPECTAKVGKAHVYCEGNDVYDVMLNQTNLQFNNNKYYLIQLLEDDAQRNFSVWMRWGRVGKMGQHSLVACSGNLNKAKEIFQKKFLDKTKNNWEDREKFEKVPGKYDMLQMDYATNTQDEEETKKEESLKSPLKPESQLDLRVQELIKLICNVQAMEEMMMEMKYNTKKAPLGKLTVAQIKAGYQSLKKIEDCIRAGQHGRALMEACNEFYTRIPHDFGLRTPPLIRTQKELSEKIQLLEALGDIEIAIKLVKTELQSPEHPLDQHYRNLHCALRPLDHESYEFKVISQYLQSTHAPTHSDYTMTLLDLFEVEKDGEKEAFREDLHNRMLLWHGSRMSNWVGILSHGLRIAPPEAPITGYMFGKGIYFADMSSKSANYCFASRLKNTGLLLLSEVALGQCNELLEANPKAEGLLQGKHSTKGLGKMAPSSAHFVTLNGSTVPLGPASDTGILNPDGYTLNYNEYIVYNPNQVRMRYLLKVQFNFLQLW
Protocol Text: Enzymatic inhibition on the PARP family members (ELISA), PARP2
Format: biochemical
Condition Context: PARP family panel
Reported Property: IC50 (nM)
Numbers only, in nM.

QUERY: Identify measured IC50 corresponding to CNCc1ccc(-c2cc3cc(F)cc(C(N)=O)c3o2)cc1 [compound 5b]
RESULT: 1.9

---

Target Under Test: PARP1 (Homo sapiens)
Sequence (P09874 whole entry): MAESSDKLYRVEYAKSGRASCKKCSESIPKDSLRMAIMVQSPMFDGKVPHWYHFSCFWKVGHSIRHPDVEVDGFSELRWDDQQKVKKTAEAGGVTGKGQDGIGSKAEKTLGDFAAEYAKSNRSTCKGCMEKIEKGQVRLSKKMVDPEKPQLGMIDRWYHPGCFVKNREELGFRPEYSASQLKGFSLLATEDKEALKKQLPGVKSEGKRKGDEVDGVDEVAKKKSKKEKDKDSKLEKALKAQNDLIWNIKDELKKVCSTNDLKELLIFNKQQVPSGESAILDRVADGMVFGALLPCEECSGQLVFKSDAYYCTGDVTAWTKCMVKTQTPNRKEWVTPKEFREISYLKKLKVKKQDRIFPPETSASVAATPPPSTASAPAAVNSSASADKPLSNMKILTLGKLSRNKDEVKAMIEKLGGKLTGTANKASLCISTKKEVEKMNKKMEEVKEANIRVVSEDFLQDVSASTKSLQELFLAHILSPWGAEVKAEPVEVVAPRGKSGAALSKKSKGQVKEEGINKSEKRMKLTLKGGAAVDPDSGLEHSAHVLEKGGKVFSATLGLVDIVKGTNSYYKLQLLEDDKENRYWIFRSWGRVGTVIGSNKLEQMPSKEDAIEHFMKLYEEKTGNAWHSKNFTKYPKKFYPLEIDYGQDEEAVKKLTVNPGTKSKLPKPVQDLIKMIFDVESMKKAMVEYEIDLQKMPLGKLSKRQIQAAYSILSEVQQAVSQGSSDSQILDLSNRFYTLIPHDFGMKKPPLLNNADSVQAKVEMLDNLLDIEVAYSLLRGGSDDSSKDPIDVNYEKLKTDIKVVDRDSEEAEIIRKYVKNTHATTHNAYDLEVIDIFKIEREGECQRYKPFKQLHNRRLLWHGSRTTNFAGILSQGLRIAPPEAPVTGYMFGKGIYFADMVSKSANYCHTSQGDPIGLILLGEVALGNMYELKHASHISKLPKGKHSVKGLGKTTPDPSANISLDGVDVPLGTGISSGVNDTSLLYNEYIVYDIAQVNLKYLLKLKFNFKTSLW
Protocol Text: Enzymatic inhibition on the PARP family members (ELISA), PARP1
Assay type: biochemical
Condition Context: PARP family panel
Reported Property: pIC50
Numbers only, as −log10 of the molar value.

QUERY: Name the recorded pIC50 of the molecule listed here: `CNCc1ccc(-c2cc3cc(F)cc(C(N)=O)c3o2)cc1`
RESULT: 8.49

---

Target Under Test: TNKS2 (Homo sapiens)
Sequence (Q9H2K2 whole entry, species assumed): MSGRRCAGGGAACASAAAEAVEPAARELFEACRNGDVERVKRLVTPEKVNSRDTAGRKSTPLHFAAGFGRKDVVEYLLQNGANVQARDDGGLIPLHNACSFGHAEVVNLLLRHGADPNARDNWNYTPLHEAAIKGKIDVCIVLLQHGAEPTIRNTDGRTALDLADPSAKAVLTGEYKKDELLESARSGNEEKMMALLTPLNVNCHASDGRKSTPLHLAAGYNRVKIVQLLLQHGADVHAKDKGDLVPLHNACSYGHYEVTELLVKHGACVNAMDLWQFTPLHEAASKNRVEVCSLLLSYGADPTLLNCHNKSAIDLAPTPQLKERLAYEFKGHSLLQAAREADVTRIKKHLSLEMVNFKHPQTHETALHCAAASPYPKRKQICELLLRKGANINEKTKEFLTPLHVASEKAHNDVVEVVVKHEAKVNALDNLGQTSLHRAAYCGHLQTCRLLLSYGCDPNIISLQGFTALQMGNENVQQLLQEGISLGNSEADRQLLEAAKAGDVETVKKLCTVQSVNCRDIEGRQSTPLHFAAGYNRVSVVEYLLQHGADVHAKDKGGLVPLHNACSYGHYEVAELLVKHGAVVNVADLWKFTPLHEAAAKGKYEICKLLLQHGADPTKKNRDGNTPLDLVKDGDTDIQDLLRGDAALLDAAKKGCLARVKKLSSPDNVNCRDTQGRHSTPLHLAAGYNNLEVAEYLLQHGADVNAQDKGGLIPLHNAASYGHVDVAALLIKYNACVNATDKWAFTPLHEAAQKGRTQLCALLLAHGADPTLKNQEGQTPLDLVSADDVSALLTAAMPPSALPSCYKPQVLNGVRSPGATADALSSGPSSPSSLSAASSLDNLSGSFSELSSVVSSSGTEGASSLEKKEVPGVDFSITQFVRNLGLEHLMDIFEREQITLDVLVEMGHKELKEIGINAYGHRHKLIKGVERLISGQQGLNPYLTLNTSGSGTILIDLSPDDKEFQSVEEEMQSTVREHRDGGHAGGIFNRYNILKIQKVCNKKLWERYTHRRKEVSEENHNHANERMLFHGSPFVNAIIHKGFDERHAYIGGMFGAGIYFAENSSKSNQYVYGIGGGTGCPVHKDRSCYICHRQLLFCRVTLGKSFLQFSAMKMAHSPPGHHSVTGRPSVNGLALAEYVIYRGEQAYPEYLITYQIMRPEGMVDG
Reported Property: pIC50
Give bare numbers, as −log10 of the molar value.

QUERY: Lab note: record pIC50 of `CNCc1ccc(-c2cc3cc(F)cc(C(N)=O)c3o2)cc1` tested on TNKS2 (Homo sapiens).
RESULT: 5.89

---

Target sequence: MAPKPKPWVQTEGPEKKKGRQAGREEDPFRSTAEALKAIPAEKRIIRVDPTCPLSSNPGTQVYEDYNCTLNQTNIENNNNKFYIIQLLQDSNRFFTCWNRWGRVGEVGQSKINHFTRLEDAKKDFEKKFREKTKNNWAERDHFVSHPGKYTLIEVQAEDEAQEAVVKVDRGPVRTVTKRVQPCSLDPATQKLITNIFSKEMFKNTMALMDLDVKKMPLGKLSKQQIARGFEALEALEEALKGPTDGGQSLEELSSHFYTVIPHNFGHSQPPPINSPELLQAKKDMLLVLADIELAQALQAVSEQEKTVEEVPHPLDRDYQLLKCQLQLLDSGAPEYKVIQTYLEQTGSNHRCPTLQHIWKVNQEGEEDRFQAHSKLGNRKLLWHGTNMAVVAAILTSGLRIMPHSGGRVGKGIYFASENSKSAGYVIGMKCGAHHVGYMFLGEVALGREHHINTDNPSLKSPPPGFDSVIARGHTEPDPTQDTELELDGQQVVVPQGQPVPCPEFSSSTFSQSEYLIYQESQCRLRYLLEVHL
Reported Property: IC50

QUERY: Tell me IC50 reported for CNCc1ccc(-c2cc3cc(F)cc(C(N)=O)c3o2)cc1 [compound 5b]
RESULT: > 10 µM
